# SYSTEM TESTED: His/S-ΔIBB importin-α1 (mouse, residues 70–529), wild-type (mouse, UniProt P52293 70-529)
# EXPERIMENT NOTES: ELISA
# CONDITION SET: both partners purified
PROPERTY LABEL: pKd
Please note pKd is a logarithmic value: minus log10 of concentration in mol/L. Answer with that number alone.

Value of measured pKd for the entry ASQGTKRSYEQMET (also called GST-tagged ncNLS; not shown: GST, N-terminal, kept) [GST-NP ncNLS, wild-type] : 5.77
